Origin of values: PubChem BioAssay (NCI)

Catalogue of TGI readings, one per entry.
Tested on: HOP-62 NSCLC
Assay: NCI tumour cell line growth inhibition, 48 h

Here is how some compounds turned out for TGI.
Form: item CCCCN(C)C(=O)C1=C(C)NC(C)=C(C(=O)N(C)CCCC)C1 ; test system HOP-62 NSCLC; TGI: > 100 µM

# CC(=O)CC(=O)CCC(=O)Nc1cccc(C(F)(F)F)c1 with HOP-62 NSCLC: TGI is > 100 µM

Summary line: CCCC(=O)OCOC(=O)N(C)N=Nc1ccc(C(=O)OCC)cc1 , HOP-62 NSCLC, reported TGI = > 100 µM

Form field TGI for item COc1ccc(C(=O)Oc2c(C#N)sc3c2c(=O)n(-c2ccccc2)c(=S)n3-c2ccccc2)cc1 on HOP-62 NSCLC: 73.9 µM

For Nc1n[nH]c(CCCCCCCc2nc(N)n[nH]2)n1 on HOP-62 NSCLC, measured TGI was > 100 µM

Tested on HOP-62 NSCLC, the item COc1cc(/C=C/C2=C(C#N)C(=O)OC2(C)C)ccc1O showed TGI equal to > 100 µM

Noted TGI for c1ccc2cc3c(cc2c1)OP1(Oc2cccc4cccnc24)(O3)Oc2cc3ccccc3cc2O1 , tested on HOP-62 NSCLC: > 73.3 µM

The reported TGI value, HOP-62 NSCLC, for CCN(Cc1ccc(F)cc1)c1ccc(CO)c(C(F)(F)F)c1 reads 21.2 µM

New cases:
Tested on HOP-62 NSCLC, the item O=C1C(Sc2ccc3ccccc3c2)=C(Sc2ccc3ccccc3c2)C(=O)c2ccccc21 showed TGI equal to 27.8 µM

Value sought: TGI, system HOP-62 NSCLC, item c1n[nH]cc1C12C3C4C5C3C1C5C42 (stereo unspecified) . Result: > 100 µM

Tested on HOP-62 NSCLC: CCOC(=O)/C=C/C1(CCOC(C)=O)CCCCC1 . Observed TGI: > 10 µM

====

Test system: DU-145 prostate
Assay: NCI tumour cell line growth inhibition, 48 h
Catalogue of molecules with associated log10 of TGI
Please interpret these as log10 of TGI where TGI is in µM.

Record excerpt, results attached:
response.value for Fc1ccc2nc(-c3nc(-c4ccccc4)n4ccccc34)[nH]c2c1 (field: log10 of TGI) = 1.26

Note to self: log10 of TGI recorded for O=C1C(Sc2ccc3ccccc3c2)=C(Sc2ccc3ccccc3c2)C(=O)c2ccccc21 was 1.93

Briefly, log10 of TGI measured for CC(=O)N(O)c1ccc(/C=C/c2ccccc2)cc1 : 0.40

// field: log10 of TGI; key: O=C1/C(=C/c2ccccc2[N+](=O)[O-])COc2ccc(O)cc21 ; value = 0.63

The reported log10 of TGI of the molecule CCOC(=O)/C=C\C(C#N)(C#N)N=Cc1ccsc1 was 1.49

Others:
Recorded result, CCN(Cc1ccc(F)cc1)c1ccc(CO)c(C(F)(F)F)c1 , log10 of TGI: 1.50

log10 of TGI reading for O=C1CSC(c2ccccc2O)N1c1ccc(Oc2ccc(Cl)cc2)c(Cl)c1 (stereo not given) : 1.78

====

List of TGI values.
Tested on: EKVX NSCLC
Assay: NCI tumour cell line growth inhibition, 48 h

Lab entry: EKVX NSCLC assay, molecule C[C@@]1(OC(=O)c2cc([N+](=O)[O-])cc([N+](=O)[O-])c2)C[C@@H]2CCCC[C@@H]21 , TGI = > 100 µM

Noted TGI for CC(=O)OCC(CC[CH2][Sn]([Cl])([Cl])[c]1ccccc1)OC(C)=O (stereo not given) , tested on EKVX NSCLC: > 100 µM

// molecule Nc1nc(-c2ccc(Cl)cc2)nc2c1sc(=S)n2-c1ccccc1 , assay EKVX NSCLC, TGI value: 14.7 µM

Tested system EKVX NSCLC; TGI recorded for CC(C)=CCC/C(C)=C/CCC1(C)C=Cc2c(c3ccccc3oc2=O)O1 (stereo not given) was 33.9 µM

Observed TGI, EKVX NSCLC, O=C(O)CC12CC3CC(CC(O)(C3)C1)C2 : > 100 µM

Entry COc1ccc(-n2c(C)nc3ccc(NC4OC(CO)C(O)C(O)C4O)cc3c2=O)cc1 (stereo not given) : TGI on EKVX NSCLC = > 100 µM
